- target-of-assay: human TLR8 (Homo sapiens)
- Sequence (Q9NR97 27-1041): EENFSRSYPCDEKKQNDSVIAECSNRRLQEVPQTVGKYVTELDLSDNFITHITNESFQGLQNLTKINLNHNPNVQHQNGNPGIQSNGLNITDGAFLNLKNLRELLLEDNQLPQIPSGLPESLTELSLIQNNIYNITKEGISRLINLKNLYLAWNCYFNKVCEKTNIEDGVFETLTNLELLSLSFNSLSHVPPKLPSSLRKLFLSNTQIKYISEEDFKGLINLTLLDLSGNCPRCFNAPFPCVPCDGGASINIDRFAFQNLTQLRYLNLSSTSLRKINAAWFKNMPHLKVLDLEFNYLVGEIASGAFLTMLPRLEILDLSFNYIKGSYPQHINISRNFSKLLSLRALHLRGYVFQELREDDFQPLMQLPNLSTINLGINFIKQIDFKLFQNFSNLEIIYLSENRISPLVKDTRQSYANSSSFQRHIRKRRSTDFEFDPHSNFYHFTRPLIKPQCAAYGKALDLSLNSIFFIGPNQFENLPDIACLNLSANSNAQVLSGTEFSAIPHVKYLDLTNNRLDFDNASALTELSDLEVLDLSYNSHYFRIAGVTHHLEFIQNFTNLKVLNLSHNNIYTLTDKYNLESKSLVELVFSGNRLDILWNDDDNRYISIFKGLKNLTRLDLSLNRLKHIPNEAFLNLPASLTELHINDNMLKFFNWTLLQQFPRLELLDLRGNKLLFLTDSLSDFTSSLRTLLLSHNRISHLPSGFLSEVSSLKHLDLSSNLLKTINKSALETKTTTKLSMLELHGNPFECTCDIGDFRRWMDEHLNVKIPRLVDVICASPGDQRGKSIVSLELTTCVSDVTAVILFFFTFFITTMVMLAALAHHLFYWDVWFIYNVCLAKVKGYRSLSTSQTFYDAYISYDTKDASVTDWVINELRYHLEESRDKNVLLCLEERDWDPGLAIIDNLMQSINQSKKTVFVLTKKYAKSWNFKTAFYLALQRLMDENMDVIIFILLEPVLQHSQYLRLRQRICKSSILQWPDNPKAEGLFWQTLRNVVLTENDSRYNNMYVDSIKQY
- assay-explanation: TLR8 inhibition reporter assay (HEK-Blue cells, SEAP reporter, R848 stimulation)
- recorded-conditions: HEK-Blue cells overexpressing human TLR8, SEAP reporter, R848 15.9 μM
pIC50: −log10 of the molar value.
metric-name: pIC50

Past entries and their recorded results:
compound: Cc1cc(-c2[nH]nc(C3CCC(NC4CCN(C(C)C)CC4)CC3)c2C(C)C)cn2ncnc12 (single isomer, unassigned) [Example 289]
metric-name: pIC50
number: 9.01
//
compound: Cc1cc(-c2[nH]nc(C3CCC(NCCN(C)C)CC3)c2C(C)C)cn2ncnc12 (single isomer, unassigned) [Example 285]
metric-name: pIC50
number: 8.57

1. CCc1c(C(=O)NC2CCN(C)CC2)n[nH]c1-c1cc(C)c2ncnn2c1 [Example 181]
2. COc1cc(-c2[nH]nc(-c3cnc(C4CCN(C(=O)CN(C)C)CC4)cn3)c2C(C)C)cn2ncnc12 [Example 403]
3. Cc1cc(-c2[nH]nc(-c3ncc(C4CCN(C(C)C(C)C)CC4)cn3)c2C(C)C)cn2ncnc12 (stereo not drawn) [Example 372]
4. Cc1cc(-c2[nH]nc(C(=O)N[C@H]3CC[C@H](NC4CCOC(C)(C)C4)CC3)c2C(C)C)cn2ncnc12 (stereo partly drawn) [Example 115]
5. Cc1cc(-c2[nH]nc(C3CCC(NCC4(C)COC4)CC3)c2C(C)C)cn2ncnc12 (single isomer, unassigned) [Example 281]
Q. Arrange the 5 compounds by rising pIC50, starting with the smallest. Output spec: labels arranged per the requested ranking.
A. 2, 1, 4, 3, 5
(2: 6.81, 1: 7.44, 4: 7.77, 3: 8.60, 5: 9.35)

I. COCCN1CCC(c2cnc(-c3n[nH]c(-c4cc(OC)c5ncnn5c4)c3C(C)C)cn2)CC1 [Example 396]
II. Cc1cc(-c2[nH]nc(C3CCN(CC(=O)N(C)C)CC3)c2C(C)C)cn2ncnc12 [compound 212]
Q. Select one: I or II . Criterion: greater recorded pIC50. I would appreciate it if you answered with the label of your choice.
A. II

a. Cc1cc(-c2[nH]nc(-c3cnc(NC(C)C)cn3)c2C(C)C)cn2ncnc12 [Example 241]
b. Cc1cc(-c2[nH]nc(C(=O)N[C@H]3CC[C@@H](NC(C)C(C)C)CC3)c2C(C)C)cn2ncnc12 (stereo partly drawn) [Example 99]
c. Cc1cc(-c2[nH]nc(C(N)=O)c2C(C)C)cn2ncnc12 [Example 29]
d. COc1cc(-c2[nH]nc(C(=O)NC3CCNCC3)c2CC(F)(F)F)cn2ncnc12 [Example 190]
e. COc1cc(-c2[nH]nc(-c3ccc4c(c3)CCNC4)c2C(C)C)cn2ncnc12 [Example 234]
Q. Arrange the 5 compounds by rising pIC50, starting with the smallest. Output spec: labels arranged per the requested ranking.
A. e, b, a, c, d

a. Cc1cc(-c2[nH]nc(C(=O)N3CCC(C(N)=O)CC3)c2C(C)C)cn2ncnc12 [Example 15]
b. Cc1cc(-c2[nH]nc(C(=O)NC3CNC3)c2C(C)C)cn2ncnc12 [Example 58]
Q. Select one: a or b . Criterion: greater recorded pIC50. I would appreciate it if you answered with the label of your choice.
A. b

A. Cc1cc(-c2[nH]nc(C(=O)N[C@H]3CC[C@@H](NCC4CCCC4)CC3)c2C(C)C)cn2ncnc12 [Example 94]
B. CCN1CC(c2ccc(-c3n[nH]c(-c4cc(C)c5ncnn5c4)c3C(C)C)cc2)C1 [Example 325]
C. Cc1cc(-c2[nH]nc(C3CCC(NCC4(C)COC4)CC3)c2C(C)C)cn2ncnc12 (single isomer, unassigned) [Example 280]
D. COc1cc(-c2[nH]nc(-c3cnc(C4CCN(C5CCC5)CC4)cn3)c2C(C)C)cn2ncnc12 [Example 387]
E. Cc1cc(-c2[nH]nc(C(=O)N[C@H]3CC[C@H](NC(C)C(C)(C)C)CC3)c2C(C)C)cn2ncnc12 (stereo partly drawn) [Example 148]
Q. Order the records so the highest pIC50 appears first and the lowest last. Output spec: labels arranged per the requested ranking.
A. B, C, A, E, D

A. Cc1cc(-c2[nH]nc(-c3ccc(C4CCN(CC(C)(C)C)CC4)cc3)c2C(C)C)cn2ncnc12 [Example 317]
B. CCN1CCOC(CNC(=O)c2n[nH]c(-c3cc(C)c4ncnn4c3)c2C(C)C)C1 (stereo not drawn) [Example 140]
C. COc1cc(-c2[nH]nc(-c3ccc(C4CCN(CC(C)(C)O)CC4)cc3)c2C(C)C)cn2ncnc12 [Example 319]
D. Cc1cc(-c2[nH]nc(C(=O)N[C@H]3CC[C@@H](N)CC3)c2C(C)C)cn2ncnc12 [Example 63]
Q. Order the records so the highest pIC50 appears first and the lowest last. Output spec: labels arranged per the requested ranking.
A. C, B, A, D
(C: 9.28, B: 9.05, A: 8.37, D: 7.84)

1. Cc1cc(-c2[nH]nc(-c3ccc(C4CCN(C)CC4)cc3)c2C(C)C)cn2ncnc12 [Example 309]
2. CNC(=O)CN1CCC(c2n[nH]c(-c3cc(C)c4ncnn4c3)c2C(C)C)CC1 [Example 211]
Q. I'm curious, which of these has a smaller pIC50 number: 1 or 2 ? I would appreciate it if you answered with the label of your choice.
A. 1

I. Cc1cc(-c2[nH]nc(C3CCC(N(C)C(=O)C4CN(C(C)C)C4)CC3)c2C(C)C)cn2ncnc12 (single isomer, unassigned) [Example 303]
II. Cc1cc(-c2[nH]nc(-c3ccc4c(c3)CCNC4=O)c2C(C)C)cn2ncnc12 [Example 215]
Q. I'm curious, which of these has a smaller pIC50 number: I or II ? I would appreciate it if you answered with the label of your choice.
A. II
(II: 8.22, I: 9.03)
